FYI, the data here is from patent US20150297482A1.

Tested on: Staphylococcus haemolyticus CNCM I-4170
Test: Protocol A: in-vitro malodor inhibition (free thiol groups from Cys-Gly precursor, DTNB absorbance at 412 nm)
Format: cell-based
Conditions: Staphylococcus haemolyticus, CNCMI4170; Table 2; 0.05 w/v % in medium; read-out: Ingredient Malodor Inhibition Value (%)
inhibition at 0.05 % overview
A number alone suffices; assume %.

Some solved entries appear below for comparison.
{"columns": ["compound", "unit.annotation", "inhibition at 0.05 %"],
 "data": [
  ["CC1(C)C2CC=C(CCC=O)C1C2 (stereo not shown)", "%", 96.3],
  ["CC=CCCCCCCCC=O", "%", 77.9],
  ["CCCCCCCCC=O", "%", 97.8]
]}

Lookup: Give the measured inhibition at 0.05 % of CC1=CC2CC(C=O)C1CC2C(C)C (stereo not shown) .
Found: 88.2
